Source listed as ChEMBL document CHEMBL1148648.

So I've got Ki readings for Adenosine receptor A2a (Homo sapiens, UniProt P29274), take a look.
resultType: Ki

cpdSmiles	subjectOfTest	resultType	dataValue
CCCn1c(=O)c2nc(-c3cnn(Cc4cc(C(F)(F)F)ccc4Cl)c3)[nH]c2n(CCC)c1=O	Adenosine receptor A2a (Homo sapiens, UniProt P29274)	Ki	1400 nM
CC(C)Cn1c(=O)c2[nH]c(-c3cnn(Cc4cccc(C(F)(F)F)c4)c3)nc2n(CC(C)C)c1=O	Adenosine receptor A2a (Homo sapiens, UniProt P29274)	Ki	4300 nM
CCn1c(=O)c2nc(-c3cnn(Cc4cccc(C(F)(F)F)c4)c3)[nH]c2n(CC)c1=O	Adenosine receptor A2a (Homo sapiens, UniProt P29274)	Ki	450 nM
CCCn1c(=O)c2[nH]c(-c3cnn(Cc4ccccc4C)c3)nc2n(CCC)c1=O	Adenosine receptor A2a (Homo sapiens, UniProt P29274)	Ki	51 nM
Cn1c(=O)c2nc(-c3cnn(Cc4cccc(C(F)(F)F)c4)c3)[nH]c2n(C)c1=O	Adenosine receptor A2a (Homo sapiens, UniProt P29274)	Ki	690 nM
CCCn1c(=O)c2[nH]c(-c3cnn(Cc4cccc(F)c4)c3)nc2n(CCC)c1=O	Adenosine receptor A2a (Homo sapiens, UniProt P29274)	Ki	230 nM
Cn1c(=O)c2nc(-c3cnn(Cc4ccccc4)c3)[nH]c2n(C)c1=O	Adenosine receptor A2a (Homo sapiens, UniProt P29274)	Ki	3500 nM
CCCn1c(=O)c2[nH]c(-c3cnn(Cc4ccccc4)c3)nc2n(CCC)c1=O	Adenosine receptor A2a (Homo sapiens, UniProt P29274)	Ki	290 nM
CCCn1c(=O)c2[nH]c(-c3cnn(Cc4ccc(C)cc4)c3)nc2n(CCC)c1=O	Adenosine receptor A2a (Homo sapiens, UniProt P29274)	Ki	80 nM

---

Recorded Ratio Ki for the following molecules
biological target: Adenosine receptors; A1 & A2b (Homo sapiens) (UniProt P30542+P29275); test: Selectivity for human adenosine A2b receptor over adenosine A1 receptor; type: protein assay

cpdSmiles	Ratio Ki
CCCn1c(=O)c2[nH]c(-c3cnn(Cc4cccc(F)c4)c3)nc2n(CCC)c1=O	13
CCCn1c(=O)c2nc(-c3cnn(Cc4ccccc4F)c3)[nH]c2n(CCC)c1=O	0.6
CC(C)Cn1c(=O)c2nc(-c3cnn(Cc4ccccc4)c3)[nH]c2n(CC(C)C)c1=O	0.5

---

So I've got Ki readings for Adenosine receptor A2b (Homo sapiens, UniProt P29275), take a look.
resultType: Ki (µM)

cpdSmiles	resultType	scaleUnit	limitSign	dataValue
CCCn1c(=O)c2nc(-c3cnn(-c4ccccc4)c3C)[nH]c2n(CCC)c1=O	Ki	µM	>	4.1
CCCn1c(=O)c2c(nc(-n3cccn3)n2Cc2ccccc2)n(CCC)c1=O	Ki	µM	>	5.8
CCCn1c(=O)c2[nH]c(-c3cnn(Cc4cccc(C)c4F)c3)nc2n(CCC)c1=O	Ki	µM	=	0.044
CCCn1c(=O)c2[nH]c(-c3cnn(Cc4ccccc4C)c3)nc2n(CCC)c1=O	Ki	µM	=	0.033
CCn1c(=O)c2nc(-c3cnn(Cc4cccc(F)c4)c3)[nH]c2n(CC)c1=O	Ki	µM	=	0.005
CC(C)Cn1c(=O)c2[nH]c(-c3cnn(Cc4ccccc4)c3)nc2n(CC(C)C)c1=O	Ki	µM	=	1.25
CCCn1c(=O)c2[nH]c(-c3cnn(Cc4ccc(F)cc4)c3)nc2n(CCC)c1=O	Ki	µM	=	0.022
CCCn1c(=O)c2[nH]c(-c3cnn(-c4ccc(Cl)cc4)c3C(F)(F)F)nc2n(CCC)c1=O	Ki	µM	>	6.6

---

target: Adenosine A2 receptor (Homo sapiens) (UniProt P29275+P29274); assay: Selectivity for human adenosine A2b receptor over adenosine A2a receptor; type: protein assay
Categories are assigned from the measured Ratio Ki using these intervals: low band = under 2, middle band = from 2 up to 10, high band = 10 and over

cpdSmiles	answerLabel
CCCn1c(=O)c2[nH]c(-c3cnn(Cc4ccccc4)c3)nc2n(CCC)c1=O	high band
CCCn1c(=O)c2nc(-c3cnn(Cc4ccc(F)c(F)c4)c3)[nH]c2n(CCC)c1=O	middle band
CC(C)Cn1c(=O)c2nc(-c3cnn(Cc4cccc(F)c4)c3)[nH]c2n(CC(C)C)c1=O	low band
CCCn1c(=O)c2nc(-c3cnn(Cc4ccccc4OC)c3)[nH]c2n(CCC)c1=O	middle band
CCCn1c(=O)c2nc(-c3cnn(Cc4ccc(Cl)cc4)c3)[nH]c2n(CCC)c1=O	middle band
CCCn1c(=O)c2nc(-c3cnn(Cc4cccc(Cl)c4)c3)[nH]c2n(CCC)c1=O	middle band
CCCn1c(=O)c2nc(-c3cnn(Cc4ccc(F)cc4)c3)[nH]c2n(CCC)c1=O	middle band
CCCn1c(=O)c2nc(-c3cnn(Cc4cc(C(F)(F)F)ccc4Cl)c3)[nH]c2n(CCC)c1=O	high band
CCCn1c(=O)c2nc(-c3cn[nH]c3)[nH]c2n(CCC)c1=O	high band
CC(C)Cn1c(=O)c2nc(-c3cnn(Cc4cccc(C(F)(F)F)c4)c3)[nH]c2n(CC(C)C)c1=O	high band
CCCn1c(=O)c2[nH]c(-c3cnn(Cc4cccc(F)c4)c3)nc2n(CCC)c1=O	high band
CCCn1c(=O)c2[nH]c(-c3cnn(Cc4cccc(C(F)(F)F)c4)c3)nc2n(CCC)c1=O	high band
CCn1c(=O)c2nc(-c3cnn(Cc4ccccc4)c3)[nH]c2n(CC)c1=O	middle band
CCCn1c(=O)c2nc(-c3cnn(Cc4ccc(OC)cc4)c3)[nH]c2n(CCC)c1=O	low band
CCCCn1c(=O)c2nc(-c3cnn(Cc4ccccc4)c3)[nH]c2n(CCCC)c1=O	low band

---

Recorded Ratio Ki for the following compounds
target: Adenosine A2 receptor (Homo sapiens) (UniProt P29275+P29274); experiment: Selectivity for human adenosine A2b receptor over adenosine A2a receptor; type: protein assay

cpdSmiles	subjectOfTest	Ratio Ki
CCCn1c(=O)c2nc(-c3cnn(Cc4cccc(C)c4)c3)[nH]c2n(CCC)c1=O	Adenosine A2 receptor (Homo sapiens) (UniProt P29275+P29274)	2
CCCn1c(=O)c2nc(-c3cnn(Cc4ccccc4F)c3)[nH]c2n(CCC)c1=O	Adenosine A2 receptor (Homo sapiens) (UniProt P29275+P29274)	2
CCCn1c(=O)c2nc(-c3cnn(Cc4ccccc4C)c3)[nH]c2n(CCC)c1=O	Adenosine A2 receptor (Homo sapiens) (UniProt P29275+P29274)	2
CCCn1c(=O)c2nc(-c3cnn(Cc4cccc(C)c4F)c3)[nH]c2n(CCC)c1=O	Adenosine A2 receptor (Homo sapiens) (UniProt P29275+P29274)	10
CCCn1c(=O)c2nc(-c3cnn(Cc4cccc(OC)c4)c3)[nH]c2n(CCC)c1=O	Adenosine A2 receptor (Homo sapiens) (UniProt P29275+P29274)	2
CCCn1c(=O)c2nc(-c3cnn(-c4ccccc4)c3)[nH]c2n(CCC)c1=O	Adenosine A2 receptor (Homo sapiens) (UniProt P29275+P29274)	2
